# Species on record: Homo sapiens
# Protocol: Selectivity ratio of IC50 for human JAK3 expressed in baculovirus to IC50 for human JAK2 expressed in baculovirus
Value type: Ratio IC50

- Cc1cnc(Nc2ccc(/C=C/C(=O)NO)cc2)nc1-c1cc2ccccc2o1: 7
- CCOC(=O)COc1ccc(Nc2ncc(C)c(-c3cc4ccccc4o3)n2)cc1: 3.7
- CS(=O)(=O)N1CCc2oc(-c3nc(Nc4ccc(OCCN5CCCC5)cc4)ncc3F)cc2C1: 3.2
- CCOC(=O)COc1cccc(Nc2ncc(C)c(-c3cc4ccccc4o3)n2)c1: 4.6
- CN1CCN(c2ccc(Nc3nccc(-c4cc5c(o4)CCN(C(=O)CC#N)C5)n3)cc2)CC1: 2.5
- N#CCC(=O)N1CCc2oc(-c3ccnc(Nc4ccc(N5CCOCC5)cc4)n3)cc2C1: 10.6
- CS(=O)(=O)N1CCc2oc(-c3ccnc(Nc4ccc(OCCN5CCCC5)cc4)n3)cc2C1: 3.1
- CS(=O)(=O)N1CCc2oc(-c3ccnc(Nc4ccc(N5CCOCC5)cc4)n3)cc2C1: 5.3
- Cc1cnc(Nc2ccc(N3CCOCC3)cc2)nc1-c1cc2cc(C#N)ccc2o1: 35
- Cc1cnc(Nc2ccc(OCC(=O)O)cc2)nc1-c1cc2ccccc2o1: 21.7

----------
Here we list molecules with their recorded pIC50 when tested on Tyrosine-protein kinase JAK3 (Homo sapiens, UniProt P52333).
Sequence (P52333 whole entry): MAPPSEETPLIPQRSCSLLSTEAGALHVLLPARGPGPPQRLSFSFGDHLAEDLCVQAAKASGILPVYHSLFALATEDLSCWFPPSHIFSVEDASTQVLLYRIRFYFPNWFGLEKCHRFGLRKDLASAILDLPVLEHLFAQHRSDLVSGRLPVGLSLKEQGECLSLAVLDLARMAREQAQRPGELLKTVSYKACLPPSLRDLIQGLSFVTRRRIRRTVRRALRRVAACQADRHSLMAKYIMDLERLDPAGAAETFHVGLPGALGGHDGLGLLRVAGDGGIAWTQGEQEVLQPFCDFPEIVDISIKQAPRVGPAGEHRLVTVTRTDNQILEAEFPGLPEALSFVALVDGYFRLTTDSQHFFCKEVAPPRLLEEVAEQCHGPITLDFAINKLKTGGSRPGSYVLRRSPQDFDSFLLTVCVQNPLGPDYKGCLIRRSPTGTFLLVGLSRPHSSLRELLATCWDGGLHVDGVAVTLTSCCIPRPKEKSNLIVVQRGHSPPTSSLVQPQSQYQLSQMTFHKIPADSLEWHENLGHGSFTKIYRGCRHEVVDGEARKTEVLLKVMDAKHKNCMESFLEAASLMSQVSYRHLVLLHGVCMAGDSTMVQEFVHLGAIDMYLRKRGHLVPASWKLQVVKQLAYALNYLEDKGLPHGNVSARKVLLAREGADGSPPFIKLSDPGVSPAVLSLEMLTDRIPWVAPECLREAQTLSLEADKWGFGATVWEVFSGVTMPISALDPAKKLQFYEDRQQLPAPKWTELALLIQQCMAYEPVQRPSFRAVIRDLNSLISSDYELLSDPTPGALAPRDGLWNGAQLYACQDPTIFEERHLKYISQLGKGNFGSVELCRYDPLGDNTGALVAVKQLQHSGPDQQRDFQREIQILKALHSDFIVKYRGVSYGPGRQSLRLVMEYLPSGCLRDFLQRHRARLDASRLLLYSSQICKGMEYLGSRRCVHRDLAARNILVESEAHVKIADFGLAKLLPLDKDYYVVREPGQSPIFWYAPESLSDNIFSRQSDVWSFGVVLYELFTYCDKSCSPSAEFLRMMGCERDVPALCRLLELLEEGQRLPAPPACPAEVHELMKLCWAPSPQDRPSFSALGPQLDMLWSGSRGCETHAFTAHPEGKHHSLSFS
pIC50: −log10 of the molar value.
Value type: pIC50

• N#CCC(=O)N1CCc2oc(-c3ccnc(Nc4ccc(N5CCOCC5)cc4)n3)cc2C1 = 6.85
• Cc1cnc(Nc2ccc(OCC(=O)O)cc2)nc1-c1cc2ccccc2o1 = 6.44
• CCOC(=O)COc1cccc(Nc2ncc(C)c(-c3cc4ccccc4o3)n2)c1 = 7.06
• CS(=O)(=O)N1CCc2oc(-c3ccnc(Nc4ccc(N5CCOCC5)cc4)n3)cc2C1 = 6.65
• CCOC(=O)COc1ccc(Nc2ncc(C)c(-c3cc4ccccc4o3)n2)cc1 = 5.92
• CN1CCN(c2ccc(Nc3nccc(-c4cc5c(o4)CCN(C(=O)CC#N)C5)n3)cc2)CC1 = 6.87
• Cc1cnc(Nc2ccc(/C=C/C(=O)NO)cc2)nc1-c1cc2ccccc2o1 = 5.80

----------
pIC50: −log10 of the molar value.
# Tyrosine-protein kinase JAK2 (Homo sapiens, UniProt O60674): pIC50 values follow
# Sequence (O60674 whole entry): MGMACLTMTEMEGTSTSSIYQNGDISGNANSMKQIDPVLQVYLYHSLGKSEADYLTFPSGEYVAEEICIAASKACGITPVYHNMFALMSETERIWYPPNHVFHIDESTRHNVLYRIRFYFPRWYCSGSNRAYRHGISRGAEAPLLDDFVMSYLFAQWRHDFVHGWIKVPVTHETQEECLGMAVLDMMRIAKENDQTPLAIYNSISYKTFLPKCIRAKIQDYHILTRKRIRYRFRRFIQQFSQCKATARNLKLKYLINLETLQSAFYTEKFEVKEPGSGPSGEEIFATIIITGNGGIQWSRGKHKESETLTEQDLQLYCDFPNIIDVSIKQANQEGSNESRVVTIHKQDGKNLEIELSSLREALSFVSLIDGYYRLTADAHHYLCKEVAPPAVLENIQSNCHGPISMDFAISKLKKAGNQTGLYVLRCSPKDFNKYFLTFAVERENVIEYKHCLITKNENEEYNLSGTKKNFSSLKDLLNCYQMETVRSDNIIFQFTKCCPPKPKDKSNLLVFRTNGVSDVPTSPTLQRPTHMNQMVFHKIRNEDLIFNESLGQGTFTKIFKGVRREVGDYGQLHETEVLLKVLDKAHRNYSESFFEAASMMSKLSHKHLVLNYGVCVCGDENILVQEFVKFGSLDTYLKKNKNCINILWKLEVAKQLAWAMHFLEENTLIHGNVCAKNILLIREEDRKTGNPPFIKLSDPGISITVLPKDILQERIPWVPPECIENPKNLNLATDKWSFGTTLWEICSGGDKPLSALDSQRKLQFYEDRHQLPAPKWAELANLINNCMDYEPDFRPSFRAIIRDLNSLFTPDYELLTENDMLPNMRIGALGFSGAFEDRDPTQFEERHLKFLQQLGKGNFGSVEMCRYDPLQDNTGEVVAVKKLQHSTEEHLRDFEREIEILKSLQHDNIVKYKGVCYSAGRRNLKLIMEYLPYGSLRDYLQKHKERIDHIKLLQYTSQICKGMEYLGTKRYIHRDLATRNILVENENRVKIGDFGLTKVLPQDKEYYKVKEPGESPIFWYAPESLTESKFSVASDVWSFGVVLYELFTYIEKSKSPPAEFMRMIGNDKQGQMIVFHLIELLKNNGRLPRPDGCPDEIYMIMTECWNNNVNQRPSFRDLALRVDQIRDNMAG
Value type: pIC50

- Cc1cnc(Nc2ccc(/C=C/C(=O)NO)cc2)nc1-c1cc2ccccc2o1: 6.65
- CS(=O)(=O)N1CCc2oc(-c3ccnc(Nc4ccc(N5CCOCC5)cc4)n3)cc2C1: 7.37
- N#Cc1ccc2oc(-c3nc(Nc4ccc(N5CCNCC5)cc4)ncc3C(F)(F)F)cc2c1: 6.86
- CC1CC(C)CN(c2ccc(Nc3ncc(C(F)(F)F)c(-c4cc5ccc(C#N)cc5o4)n3)cc2)C1 (centres undefined): 5.15

----------
Attribute: IC50
# Target or test system: Tyrosine-protein kinase JAK2 (Homo sapiens, UniProt O60674, V617F)
# Sequence (O60674 whole entry V617F): as the sequence (O60674 whole entry) above, with V617F counted along it
Value type: IC50 (µM)

• N#CCC(=O)N1CCc2oc(-c3ccnc(Nc4ccc(N5CCOCC5)cc4)n3)cc2C1 = 5.52
• CS(=O)(=O)N1CCc2oc(-c3ccnc(Nc4ccc(OCCN5CCCC5)cc4)n3)cc2C1 = 1.26
• Cc1cnc(Nc2ccc(N3CCOCC3)cc2)nc1-c1cc2cc(C#N)ccc2o1 = 3.09
• Cc1cnc(Nc2ccc(N3CCOCC3)cc2)nc1-c1cc2c(o1)CCN(S(C)(=O)=O)C2 = 1.25
• CN1CCN(c2ccc(Nc3nccc(-c4cc5c(o4)CCN(C(=O)CC#N)C5)n3)cc2)CC1 = 7.44

----------
# Organism: Homo sapiens
# Protocol: Selectivity ratio of IC50 for human JAK3 expressed in baculovirus to IC50 for human JAK2 expressed in baculovirus
Value type: Ratio IC50

* Cc1cnc(Nc2ccc(N3CCOCC3)cc2)nc1-c1cc2cc(COCC(F)(F)F)ccc2o1 | 32.5
* COc1cc(Nc2ncc(F)c(-c3cc4c(o3)CCN(S(C)(=O)=O)C4)n2)cc(OC)c1OC | 18.9
* N#Cc1ccc2oc(-c3nc(Nc4ccc(N5CCNCC5)cc4)ncc3C(F)(F)F)cc2c1 | 1.5
* CC1CC(C)CN(c2ccc(Nc3ncc(C(F)(F)F)c(-c4cc5ccc(C#N)cc5o4)n3)cc2)C1 (stereo not given) | 0.7
* Cc1cnc(Nc2ccc(N3CCOCC3)cc2)nc1-c1cc2c(o1)CCN(S(C)(=O)=O)C2 | 33.1
